Values compiled from ChEMBL document CHEMBL1201862.

assay: Trypanosoma cruzi growth suppression in host cells – NIH3T3 host cells, beta-gal luminescence, confirmation (AID 2044); type: functional, cell-based;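 also: intracellular parasites grown in NIH/3T3 mouse fibroblasts as host cells; luminescent beta-galactosidase reporter signal from transgenic T. cruzi replicating inside host cells; inhibitors lower the luminescence signal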
Calls of active or inactive are those of the source.

compound: COc1ccc(C2=NCC(CSc3nnc(-c4ccc5c(c4)OCO5)o3)S2)cc1 (configuration not stated)
EC50: 620 nM (active)
//
compound: O=C(COc1ncnc2cc([N+](=O)[O-])ccc12)NC(=O)NC1CCCCC1
EC50: 122 nM (active)
//
compound: Cc1ccc2c(C)nc(N=C(N)NS(=O)(=O)c3ccc([N+](=O)[O-])cc3)nc2c1
EC50: < 100 nM (active)
//
compound: O=C1c2cccc3c([N+](=O)[O-])ccc(c23)C(=O)N1Cc1cccnc1
EC50: 3670 nM (active)
//
compound: Cc1nc(N2CCCCC2)c2c(C)c(C(=O)Nc3cccc(C(F)(F)F)c3)sc2n1
EC50: 1540 nM (active)
//
compound: CCOC(=O)Nc1ccc2c(c1)Nc1ccccc1S2
EC50: < 100 nM (active)
//
compound: COC(=O)c1cc(NC(=O)CC2S/C(=N/c3ccccc3)N(CCc3c[nH]c4ccccc34)C2=O)cc(C(=O)OC)c1 (configuration not stated)
EC50: 1110 nM (active)

* * *

target: Probable nicotinate-nucleotide adenylyltransferase (Staphylococcus aureus (strain N315), UniProt P65502); type: functional, Staphylococcus aureus subsp. aureus N315;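 also: confirmatory retest of primary uHTS inhibitor hits against NadD over a range of doses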
Sequence (P65502 whole entry): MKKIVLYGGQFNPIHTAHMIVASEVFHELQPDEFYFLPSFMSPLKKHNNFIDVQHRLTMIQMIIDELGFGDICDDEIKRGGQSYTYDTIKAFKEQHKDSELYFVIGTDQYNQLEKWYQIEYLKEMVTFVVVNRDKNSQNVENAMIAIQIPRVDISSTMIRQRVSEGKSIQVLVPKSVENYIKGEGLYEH
Active and inactive are the calls of the source.
parameter: IC50

compound: Cc1cccc2sc(NNC(=O)c3ccc(S(=O)(=O)N4CCc5ccccc5C4)cc3)nc12
value.reported: 13.8 µM (active)

compound: COc1ccc(Br)cc1CNC(=O)CN1C(=O)C(c2ccccc2)Oc2cccnc21 (centres undefined)
value.reported: 14.3 µM (active)

compound: O=C(CC1N=C2c3ccccc3N=C(SCc3ccc(Cl)cc3)N2C1=O)NCc1ccco1 (centres undefined)
value.reported: 7.43 µM (active)

compound: Cc1csc(NC(=O)c2cc(-c3ccco3)nc3ccccc23)n1
value.reported: 9.45 µM (active)

* * *

biological target: Calpain-2 catalytic subunit (Sus scrofa, UniProt P43367); assay: m-calpain protease blockers, concentration series – biochemical, fluorogenic peptide substrate, dose response (AID 1420); type: functional
Sequence (P43367 whole entry): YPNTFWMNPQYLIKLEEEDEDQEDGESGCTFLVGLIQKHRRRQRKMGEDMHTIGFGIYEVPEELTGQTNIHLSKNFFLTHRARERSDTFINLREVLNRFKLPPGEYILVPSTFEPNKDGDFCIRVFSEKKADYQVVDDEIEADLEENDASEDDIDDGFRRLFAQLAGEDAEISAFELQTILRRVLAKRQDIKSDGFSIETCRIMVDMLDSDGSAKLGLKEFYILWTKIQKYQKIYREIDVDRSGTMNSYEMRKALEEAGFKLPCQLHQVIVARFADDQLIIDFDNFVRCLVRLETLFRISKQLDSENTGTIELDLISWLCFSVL
Calls of active or inactive are those of the source.
IC50 values by entry

smiles.representation: O=C(CCCOc1ccc(Cl)cc1Cl)N1CCc2ccccc2C1
IC50: 7.32 µM (not active)
--
smiles.representation: CN(C)c1ncc(S(=O)(=O)c2ccc(Cl)cc2)c(-c2ccccc2)n1
IC50: 8.73 µM (not active)
--
smiles.representation: O=C(CN=C(S)N(Cc1ccccc1)Cc1cccs1)NCc1ccc(F)cc1
IC50: 9.61 µM (not active)
--
smiles.representation: N#CCOc1nc(N2CCCC2)nc(N2CCCC2)n1
IC50: 14.3 µM (not active)
--
smiles.representation: O=C1c2ccccc2C(=O)c2c1cccc2N1CCCC1
IC50: 14.6 µM (not active)
--
smiles.representation: CC(C)c1ccc(CNc2ccc([N+](=O)[O-])cn2)cc1
IC50: 6.03 µM (active)

* * *

target: Cytochrome P450 2C19 (Homo sapiens, UniProt P33261); assay: Cytochrome panel assay with activity outcomes. Panel member name: p450-cyp2c19 Compounds with AC50 equal or less than 10 uM are considered active; type: functional; settings: read-out: AC50
Sequence (P33261 whole entry): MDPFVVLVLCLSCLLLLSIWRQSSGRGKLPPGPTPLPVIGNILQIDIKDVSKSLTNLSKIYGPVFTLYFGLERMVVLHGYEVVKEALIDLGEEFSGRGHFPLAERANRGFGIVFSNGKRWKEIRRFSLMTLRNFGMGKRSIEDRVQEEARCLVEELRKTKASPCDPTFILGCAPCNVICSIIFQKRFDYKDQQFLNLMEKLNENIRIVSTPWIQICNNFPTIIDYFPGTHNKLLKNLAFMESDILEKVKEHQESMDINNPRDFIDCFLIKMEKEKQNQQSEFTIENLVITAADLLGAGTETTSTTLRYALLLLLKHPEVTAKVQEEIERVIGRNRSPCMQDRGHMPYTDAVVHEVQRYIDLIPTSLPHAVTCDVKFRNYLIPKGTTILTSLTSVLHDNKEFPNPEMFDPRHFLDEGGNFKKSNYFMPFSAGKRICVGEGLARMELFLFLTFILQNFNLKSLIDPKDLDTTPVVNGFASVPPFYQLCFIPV
Active and inactive are the calls of the source.

compound: CCN1CCCC1CNC(=O)C1c2cc(OC)c(OC)cc2C(=O)N(C)C1c1cccnc1 (stereo unspecified)
AC50: 1.12 µM (inconclusive)
--
compound: CCOC(=O)CSc1nnc(CNC(=O)c2ccc(OC)cc2)n1C1CCCCC1
AC50: 10 µM (inconclusive)
--
compound: COC(=O)[C@@]1(Cc2ccc(F)cc2)[C@H]2c3cc(C(=O)N4CCCC4)n(CCO)c3C[C@H]2CN1C(=O)c1ccccc1
AC50: 39.8 µM (inconclusive)
--
compound: O=C(O)C1CCCCC1C(=O)Nc1cc(Cl)ccc1Cl (stereo unspecified)
AC50: 25.1 µM (inconclusive)
--
compound: COc1nc(Oc2ccc(/C=N/O)cc2)nc(N(C)C)n1
AC50: 17.8 µM (inconclusive)
--
compound: CN1CCN(c2ncc3nc(-c4ccccc4)c(=O)n(Cc4ccc(F)cc4)c3n2)CC1
AC50: 39.8 µM (inconclusive)
--
compound: COc1ccc(N2CCN(C(CNC(=O)C3CCCCC3)c3cccnc3)CC2)cc1 (stereo unspecified)
AC50: 7.08 µM (inconclusive)
--
compound: COC(=O)[C@@H]1[C@@H](O)[C@]2(O)c3ccccc3O[C@]2(c2ccccc2)[C@H]1c1ccccc1
AC50: 0.316 µM (inconclusive)
--
compound: CCc1ccccc1NC(=O)c1nnn(CC(=O)Nc2cccc(C)c2C)c1N
AC50: 2 µM (inconclusive)
--
compound: C/C(CC(=O)NCc1ccco1)=N\NC(=O)Cc1cccc2ccccc12
AC50: 25.1 µM (inconclusive)
--
compound: CCC(C)NC(=O)c1cnn2c(C)c3c(nc12)CCCC3 (stereo unspecified)
AC50: 31.6 µM (inconclusive)
--
compound: O=C(NCCc1ccccc1)C(=O)NCC1(c2ccccc2)CCCC1
AC50: 39.8 µM (inconclusive)
--
compound: C=CCn1c(P(=O)(O)c2ccccc2)nc2ccccc21
AC50: 6.31 µM (inconclusive)
--
compound: COc1cccc(C(=O)n2c(SC)nc3cc4c(cc32)OCCO4)c1
AC50: 35.5 µM (inconclusive)
--
compound: CCCCC(=O)OCc1cn(-c2ccc(Cl)cc2)nn1
AC50: 2.24 µM (inconclusive)
--
compound: COc1ccc(-c2nn(-c3ccccc3)cc2/C=N/NC(=O)c2ccc3c(c2)OCO3)cc1
AC50: 2.24 µM (inconclusive)
--
compound: CCn1ncc(C(=O)Nc2cc(C)on2)c1C
AC50: 15.8 µM (inconclusive)
--
compound: Cc1ccc(OC(=O)N2CCOCC2)cc1
AC50: 28.2 µM (inconclusive)
--
compound: COc1ccccc1-c1ccc2ncnc(NCc3cnc(C)cn3)c2c1
AC50: 39.8 µM (inconclusive)
--
compound: COc1ccc(-c2cc(CCCC(=O)NCCc3ccc(OC)cc3OC)no2)cc1
AC50: 1.41 µM (active)
--
compound: COCC(C)NCc1cccc([N+](=O)[O-])c1 (stereo unspecified)
AC50: 11.2 µM (inconclusive)
